Where do these numbers come from? They come from patent US8119569B2.

- System: crabgrass (Digitaria sanguinalis L.)
- assay.overview: Test Example 1: foliar treatment, upland pot
- Assay type: in vivo
- conditions: 7 g/ha, 21st day after application
Listed next: entries and their corresponding Growth inhibition rate (%) Crabgrass.
Reply numerically in %, unit not repeated.

Field: example entries. Status: answers known.
- molecule: "CCOC(=O)OC(C)Oc1c(C(=O)c2ccc(S(C)(=O)=O)c(OCCOC)c2C)cnn1CC (racemic) [compound 3]"
  Growth inhibition rate (%) Crabgrass: 95
- molecule: "CCOC(=O)OC(C)Oc1c(C(=O)c2ccc(S(C)(=O)=O)c(C(=O)OC)c2C)cnn1C (racemic) [compound 21]"
  Growth inhibition rate (%) Crabgrass: 90
- molecule: "COCCOc1c(S(C)(=O)=O)ccc(C(=O)c2cnn(C)c2OC(C)OC(=O)OC(C)C)c1C (racemic) [compound 4]"
  Growth inhibition rate (%) Crabgrass: 90
- molecule: "CCCOC(=O)OC(C)Oc1c(C(=O)c2ccc(S(C)(=O)=O)c(OCCOC)c2C)cnn1C (racemic) [compound 19]"
  Growth inhibition rate (%) Crabgrass: 90

Let us move to another entry and its Growth inhibition rate (%) Crabgrass.
Consider CCOC(=O)OC(C)Oc1c(C(=O)c2ccc(S(C)(=O)=O)c(OCCOC)c2C)cnn1C (centres unmarked) [Compound No. 2] . Its measured Growth inhibition rate (%) Crabgrass is 95

###

Listed next: entries and their corresponding Growth inhibition rate (%) Prickly sida.
- Test system: prickly sida (Sida spinosa L.)
- assay.overview: Test Example 2: soil application on the day after sowing
- Assay type: in vivo
- conditions: 250 g/ha, 19th to 22nd day after application
Reply numerically in %, unit not repeated.

- compound: "CCOC(=O)OC(C)Oc1c(C(=O)c2ccc(S(C)(=O)=O)c(OCCOC)c2C)cnn1C (stereo not drawn) [Compound No. 2]"
  unit.tag: "%"
  experimental.result: 70
- compound: "COCCOc1c(S(C)(=O)=O)ccc(C(=O)c2cnn(C)c2OC(C)OC(=O)OC(C)C)c1C (racemic) [compound 4]"
  unit.tag: "%"
  experimental.result: 90
- compound: "CCOC(=O)OC(C)Oc1c(C(=O)c2ccc(S(C)(=O)=O)c(OCCOC)c2C)c(C)nn1C (racemic) [compound 11]"
  unit.tag: "%"
  experimental.result: 40
- compound: "CCOC(=O)OC(C)Oc1c(C(=O)c2ccc(S(C)(=O)=O)c(C(=O)OC)c2C)cnn1C (racemic) [compound 21]"
  unit.tag: "%"
  experimental.result: 60
- compound: "CCCOC(=O)OC(C)Oc1c(C(=O)c2ccc(S(C)(=O)=O)c(OCCOC)c2C)cnn1C (racemic) [compound 19]"
  unit.tag: "%"
  experimental.result: 60
- compound: "CCOC(=O)OC(C)Oc1c(C(=O)c2ccc(S(C)(=O)=O)c(OCCOC)c2C)cnn1CC (racemic) [compound 3]"
  unit.tag: "%"
  experimental.result: 50
- compound: "CCOC(=O)OC(C)Oc1c(C(=O)c2ccc(S(C)(=O)=O)c(OCCOC)c2C)cnn1C(C)C (racemic) [compound 18]"
  unit.tag: "%"
  experimental.result: 70
- compound: "CCOC(=O)OC(C)Oc1c(C(=O)c2ccc(S(C)(=O)=O)c(COCC(F)(F)F)c2C)cnn1C (racemic) [compound 15]"
  unit.tag: "%"
  experimental.result: 70

Let us move to another entry and its Growth inhibition rate (%) Prickly sida.
GET /values?item= CCOC(=O)OC(C)Oc1c(C(=O)c2ccc(S(C)(=O)=O)c(COC)c2C)cnn1C (racemic) [compound 7] &system= prickly sida (Sida spinosa L.) returns Growth inhibition rate (%) Prickly sida: 80

###

- Tested on: crabgrass (Digitaria sanguinalis L.)
- assay.overview: Test Example 1: foliar treatment, upland pot
- Type: in vivo
- conditions: 7 g/ha, 21st day after application
Listed next: entries and their corresponding Growth inhibition rate (%) Crabgrass.
Please state the value followed by its unit.

Field: example entries. Status: answers known.
- compound: "CCOC(=O)OC(C)Oc1c(C(=O)c2ccc(S(C)(=O)=O)c(COCC(F)(F)F)c2C)cnn1C (racemic) [compound 15]"
  system: "crabgrass (Digitaria sanguinalis L.)"
  Growth inhibition rate (%) Crabgrass: "95%"
- compound: "CCOC(=O)OC(C)Oc1c(C(=O)c2ccc(S(C)(=O)=O)c(COC)c2C)cnn1C (racemic) [compound 7]"
  system: "crabgrass (Digitaria sanguinalis L.)"
  Growth inhibition rate (%) Crabgrass: "90%"
- compound: "CCOC(=O)OC(C)Oc1c(C(=O)c2ccc(S(C)(=O)=O)c(OCCOC)c2C)cnn1C(C)C (racemic) [compound 18]"
  system: "crabgrass (Digitaria sanguinalis L.)"
  Growth inhibition rate (%) Crabgrass: "95%"

Let us move to another entry and its Growth inhibition rate (%) Crabgrass.
GET /values?item= CCOC(=O)OC(C)Oc1c(C(=O)c2ccc(S(C)(=O)=O)c(OCCOC)c2C)c(C)nn1C (racemic) [compound 11] &system= crabgrass (Digitaria sanguinalis L.) returns Growth inhibition rate (%) Crabgrass: 90%

###

- System: prickly sida (Sida spinosa L.)
- assay.overview: Test Example 1: foliar treatment, upland pot
- Format: in vivo
- conditions: 7 g/ha, 21st day after application
endpoint.label: Growth inhibition rate (%) Prickly sida
Reply numerically in %, unit not repeated.

Field: example entries. Status: answers known.
- compound: "CCOC(=O)OC(C)Oc1c(C(=O)c2ccc(S(C)(=O)=O)c(OCCOC)c2C)cnn1CC (racemic)"
  system: "prickly sida (Sida spinosa L.)"
  unit.tag: "%"
  experimental.result: 10
- compound: "COCCOc1c(S(C)(=O)=O)ccc(C(=O)c2cnn(C)c2OC(C)OC(=O)OC(C)C)c1C (racemic)"
  system: "prickly sida (Sida spinosa L.)"
  unit.tag: "%"
  experimental.result: 40

Consider CCOC(=O)OC(C)Oc1c(C(=O)c2ccc(S(C)(=O)=O)c(OCCOC)c2C)c(C)nn1C (racemic) . Its measured Growth inhibition rate (%) Prickly sida is 10

Consider CCOC(=O)OC(C)Oc1c(C(=O)c2ccc(S(C)(=O)=O)c(COCC(F)(F)F)c2C)cnn1C (racemic) . Its measured Growth inhibition rate (%) Prickly sida is 0

Consider CCOC(=O)OC(C)Oc1c(C(=O)c2ccc(S(C)(=O)=O)c(OCCOC)c2C)cnn1C(C)C (racemic) . Its measured Growth inhibition rate (%) Prickly sida is 30

Consider CCOC(=O)OC(C)Oc1c(C(=O)c2ccc(S(C)(=O)=O)c(COC)c2C)cnn1C (racemic) . Its measured Growth inhibition rate (%) Prickly sida is 80

Consider CCCOC(=O)OC(C)Oc1c(C(=O)c2ccc(S(C)(=O)=O)c(OCCOC)c2C)cnn1C (racemic) . Its measured Growth inhibition rate (%) Prickly sida is 30

Consider CCOC(=O)OC(C)Oc1c(C(=O)c2ccc(S(C)(=O)=O)c(OCCOC)c2C)cnn1C (centres unmarked) . Its measured Growth inhibition rate (%) Prickly sida is 40

###

Listed next: entries and their corresponding Growth inhibition rate (%) Japanese ribbon waparo.
- Test system: Japanese ribbon waparo (Sagittaria pygmaea)
- assay.overview: Test Example 4: paddy field pot, water application
- Type: in vivo
- conditions: 63 g/ha, 14th day after application
Reply numerically in %, unit not repeated.

- compound: "CCOC(=O)OC(C)Oc1c(C(=O)c2ccc(S(C)(=O)=O)c(OCCOC)c2C)c(C)nn1C (racemic)"
  system: "Japanese ribbon waparo (Sagittaria pygmaea)"
  unit.tag: "%"
  experimental.result: 60
- compound: "CCOC(=O)OC(C)Oc1c(C(=O)c2ccc(S(C)(=O)=O)c(OCCOC)c2C)cnn1CC (racemic)"
  system: "Japanese ribbon waparo (Sagittaria pygmaea)"
  unit.tag: "%"
  experimental.result: 90
- compound: "CCCOC(=O)OC(C)Oc1c(C(=O)c2ccc(S(C)(=O)=O)c(OCCOC)c2C)cnn1C (racemic)"
  system: "Japanese ribbon waparo (Sagittaria pygmaea)"
  unit.tag: "%"
  experimental.result: 95
- compound: "CCOC(=O)OC(C)Oc1c(C(=O)c2ccc(S(C)(=O)=O)c(C(=O)OC)c2C)cnn1C (racemic)"
  system: "Japanese ribbon waparo (Sagittaria pygmaea)"
  unit.tag: "%"
  experimental.result: 70
- compound: "COCCOc1c(S(C)(=O)=O)ccc(C(=O)c2cnn(C)c2OC(C)OC(=O)OC(C)C)c1C (racemic)"
  system: "Japanese ribbon waparo (Sagittaria pygmaea)"
  unit.tag: "%"
  experimental.result: 90
- compound: "CCOC(=O)OC(C)Oc1c(C(=O)c2ccc(S(C)(=O)=O)c(OCCOC)c2C)cnn1C (centres unmarked)"
  system: "Japanese ribbon waparo (Sagittaria pygmaea)"
  unit.tag: "%"
  experimental.result: 95

Consider CCOC(=O)OC(C)Oc1c(C(=O)c2ccc(S(C)(=O)=O)c(OCCOC)c2C)cnn1C(C)C (racemic) . Its measured Growth inhibition rate (%) Japanese ribbon waparo is 90

Consider CCOC(=O)OC(C)Oc1c(C(=O)c2ccc(S(C)(=O)=O)c(COC)c2C)cnn1C (racemic) . Its measured Growth inhibition rate (%) Japanese ribbon waparo is 60

###

- Test system: Japanese bulrush (Scirpus juncoides)
- assay.overview: Test Example 4: paddy field pot, water application
- Type: in vivo
- conditions: 63 g/ha, 14th day after application
Listed next: entries and their corresponding Growth inhibition rate (%) Japanese bulrush.
Reply numerically in %, unit not repeated.

Field: example entries. Status: answers known.
- compound: "CCOC(=O)OC(C)Oc1c(C(=O)c2ccc(S(C)(=O)=O)c(OCCOC)c2C)cnn1C (stereo not drawn)"
  system: "Japanese bulrush (Scirpus juncoides)"
  experimental.result: 60
- compound: "CCCOC(=O)OC(C)Oc1c(C(=O)c2ccc(S(C)(=O)=O)c(OCCOC)c2C)cnn1C (racemic)"
  system: "Japanese bulrush (Scirpus juncoides)"
  experimental.result: 95
- compound: "CCOC(=O)OC(C)Oc1c(C(=O)c2ccc(S(C)(=O)=O)c(OCCOC)c2C)cnn1C(C)C (racemic)"
  system: "Japanese bulrush (Scirpus juncoides)"
  experimental.result: 90
- compound: "CCOC(=O)OC(C)Oc1c(C(=O)c2ccc(S(C)(=O)=O)c(COCC(F)(F)F)c2C)cnn1C (racemic)"
  system: "Japanese bulrush (Scirpus juncoides)"
  experimental.result: 60
- compound: "COCCOc1c(S(C)(=O)=O)ccc(C(=O)c2cnn(C)c2OC(C)OC(=O)OC(C)C)c1C (racemic)"
  system: "Japanese bulrush (Scirpus juncoides)"
  experimental.result: 95
- compound: "CCOC(=O)OC(C)Oc1c(C(=O)c2ccc(S(C)(=O)=O)c(COC)c2C)cnn1C (racemic)"
  system: "Japanese bulrush (Scirpus juncoides)"
  experimental.result: 70

Consider CCOC(=O)OC(C)Oc1c(C(=O)c2ccc(S(C)(=O)=O)c(OCCOC)c2C)c(C)nn1C (racemic) . Its measured Growth inhibition rate (%) Japanese bulrush is 100

Consider CCOC(=O)OC(C)Oc1c(C(=O)c2ccc(S(C)(=O)=O)c(OCCOC)c2C)cnn1CC (racemic) . Its measured Growth inhibition rate (%) Japanese bulrush is 95

Consider CCOC(=O)OC(C)Oc1c(C(=O)c2ccc(S(C)(=O)=O)c(C(=O)OC)c2C)cnn1C (racemic) . Its measured Growth inhibition rate (%) Japanese bulrush is 70
